Assay Method Text: yeast display, Sf9 membrane polyspecificity reagent, FACS + sequencing; frameworks hold sequencing errors
Recorded Metric: polyreactivity (PSR sort gate)

Here's what some known entries look like.
[[record]]
seq = "QVQLVESGGGLVQAGGILRLSCAASGGIIAINAMGWYRQAPGKERELVAAISWGDGITYYADSVKGRFTISRDNEKNTVYLQMNSLKPEDTAVYYCAADEDEYRGGDESWGQGTQVTVSS"
val = "low polyreactivity"

[[record]]
seq = "QVQLVESGGGLVQAGGSLRLSCAPSGSTFTHNALGWYRQAPGKERELVAAINNRGGTTYYADSVKGRFTISRDNAKNTVLLQMNSLKPEDIAVYYCNARYHYGRYGYWGQGTQVTVSS"
val = "high polyreactivity"

[[record]]
seq = "QVQLVESGGGLVQAGGSLRLSCAASGRTFYRNAMGWYRQAPGKERELVAAISRGDSTYYADSVKGRFTNSRDNAKNTVYLQMNILIPEDTAVYYCAKRARRIGDVNMGSWGQGTQVTVSS"
val = "low polyreactivity"

[[record]]
seq = "QVQLVDSGGGLVQAGGSLRLSCAASGRIFYTNAMGWYIQEPGKERELVAAIDYSDSTTYYADSVKGRFTISRDNAKNTVYLQMNSLKPEDTAVYYCAAESYLYTVTFEYWGQGTQVTVSS"
val = "high polyreactivity"

[[record]]
seq = "QVQLVESGGGLVQAGGSLRLSCAASGSIFKINAMGWYRQAPGKEREWVAAITRSGGSTYYADSVKGRFTISLDNAKNTVYLQMNSLKPEDTAVYYCNASTSRSTSLSSRFYYWGQGTQVTVSS"
val = "high polyreactivity"

[[record]]
seq = "QVQLHESGGGLVQAGGGLRLSSAASGSISSTGFMGWYRQAPGKEREPVAAIAPGTTTYYADSVKGRFTISRDNAKNTVYLQMNSLRPEDTAVYYCAVFTDNRVAFLYWGQGTQVTVSS"
val = "low polyreactivity"


# input for lookup
*Q* Using the record for `QVQLVESGGGLVQAGGSLRLSCAASGRIYAMGWYRQAPGKERELVAAISRGGSTYYADSVKGRFTISRDNAKNTVYLQKNSLKPEDTAVYYCNRKSYRLRWKVRGQYLLGYDWGQGTQVTVSS` , state its measured polyreactivity (PSR sort gate).
*A* high polyreactivity
